This collection of values is drawn from patent US20250064789A1.

biological target: recombinant SARS-CoV-2 M^pro (Severe acute respiratory syndrome coronavirus 2 (2019-nCoV) (SARS-CoV-2), UniProt P0DTD1); assay: Inhibition of SARS-CoV-2 M^pro enzyme activity (fluorescent substrate assay); assay type: biochemical; details: inhibition of SARS-CoV-2 M^pro enzyme activity; values given in μM; read-out: IC50
RECORDED METRIC: IC50

Would you please look over these solved cases?
>  <COMPOUND>
COC[C@@H](NC(=O)C1CCCC(F)(F)C1)C(=O)N[C@H](Cc1ccccc1)C(=O)C(=O)NCc1ncno1 (stereo partly shown)

>  <IC50>
> 2.5 µM

$$$$
>  <COMPOUND>
C[C@@H](OCc1ccccc1)C(=O)N[C@H](Cc1ccccc1)C(=O)C(=O)NCc1ccncn1

>  <IC50>
> 5 µM

$$$$

I would be grateful if you could share the reported IC50 for C[C@@H](OCc1ccccc1)C(=O)N[C@H](Cc1ccccc1)C(=O)C(=O)N(C)Cc1ccccn1 .
> 2.5 µM

I would be grateful if you could share the reported IC50 for C[C@@H](NC(=O)C1CCC(F)(F)CC1)C(=O)N[C@H](Cc1ccccc1)C(=O)C(=O)NCc1nccn1C .
> 2.5 µM

###

molecular target: recombinant SARS-CoV-2 M^pro (Severe acute respiratory syndrome coronavirus 2 (2019-nCoV) (SARS-CoV-2), UniProt P0DTD1); experiment: Inhibition of SARS-CoV-2 M^pro enzyme activity (fluorescent substrate assay); type: biochemical; details: inhibition of SARS-CoV-2 M^pro enzyme activity; values given in μM; read-out: IC50
RECORDED METRIC: IC50

>  <MOLECULE>
C[C@@H](NC(=O)C1CCC(F)(F)CC1)C(=O)NCC(=O)C(=O)NCc1ccccn1

>  <IC50>
> 5 µM

$$$$
>  <MOLECULE>
CN1CCC(C(=O)NC2(C(=O)N[C@H](Cc3ccccc3)C(=O)C(=O)NCc3ccccn3)CCC2)CC1=O (stereo partly shown)

>  <IC50>
> 2.5 µM

$$$$
>  <MOLECULE>
COC[C@@H](NC(=O)C1CCCC(F)(F)C1)C(=O)N[C@H](Cc1ccccc1)C(=O)C(=O)NCc1nnc(C)o1 (stereo partly shown)

>  <IC50>
> 2.5 µM

$$$$

I would be grateful if you could share the reported IC50 for C[C@@H](OCc1ccccc1)C(=O)N[C@H](Cc1ccccc1)C(=O)C(=O)NC(c1ccccc1)c1ccccn1 (stereo partly shown) .
> 5 µM

###

Recorded IC50 for the following compounds
biological target: recombinant SARS-CoV-2 M^pro (Severe acute respiratory syndrome coronavirus 2 (2019-nCoV) (SARS-CoV-2)); test: Inhibition of SARS-CoV-2 M^pro enzyme activity (fluorescent substrate assay); assay type: biochemical; conditions: inhibition of SARS-CoV-2 M^pro enzyme activity; values in nM; read-out: IC50

>  <COMPOUND>
CC[C@@H](C(=O)N[C@H](C)C(=O)N[C@H](Cc1ccccc1)C(=O)C(=O)NCc1ccccn1)N1CCCC1=O

>  <IC50>
163 nM

$$$$

I would be grateful if you could share the reported IC50 for CC[C@@H](NC(=O)C1CCC(F)(F)CC1)C(=O)N[C@H](Cc1ccccc1)C(=O)C(=O)NCc1nccs1 .
35.7 nM

I would be grateful if you could share the reported IC50 for CC(C)(OCc1ccc(Cl)cc1)C(=O)N[C@H](Cc1ccccc1)C(=O)C(=O)NCc1ccccn1 .
13.7 nM

I would be grateful if you could share the reported IC50 for COC[C@@H](NC(=O)C1CCC(F)(F)CC1)C(=O)N[C@H](Cc1ccccc1)C(=O)C(=O)NCc1cscn1 .
234 nM

I would be grateful if you could share the reported IC50 for O=C(Cc1noc(-c2cc(F)ccc2F)n1)N[C@H](Cc1ccccc1)C(=O)C(=O)NCc1nccs1 .
161 nM

I would be grateful if you could share the reported IC50 for Cc1nn(CC(=O)N[C@H](Cc2ccccc2)C(=O)C(=O)NCc2nccs2)c(C)c1-c1ccc(F)c(Cl)c1 .
32.9 nM
